src = PubChem BioAssay AID795

assay: activators of LNCaP prostate cell differentiation, primary screen, flow cytometry side scatter (AID 795);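 note: androgen-responsive LNCaP prostate cancer cells in charcoal-stripped serum medium; higher shift means more granular cells and more differentiation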
experimental_context: 4 d, at 10 µM
About 130 (0.54%) of roughly 24,000 compounds were called active.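 Rule for the calls: active = side scatter shift above 30%; inactive = the rest.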 The full list was thinned out, with actives kept by preference.
Please answer using one outcome listed in active, inactive

Record lookup: outcome of this test for `Cc1c2cn[nH]c(=O)c2c(C)n1Cc1ccc(F)cc1` ?
inactive

Record lookup: outcome of this test for `COc1ccccc1NC(=O)CSc1nnc(Cc2cccn2C)n1-c1ccc(F)cc1` ?
inactive

Record lookup: outcome of this test for `CCOC(=O)c1ccc(NC(=O)Cn2nnc(-c3ccc(C)cc3)n2)cc1` ?
inactive

Record lookup: outcome of this test for O=C1Nc2c(Br)cc(Br)cc2C1(O)N1CCOCC1 (configuration not stated) ?
inactive

Record lookup: outcome of this test for `COc1ccc(Cc2nnc(NC(=O)Cc3cccs3)s2)cc1` ?
inactive

Record lookup: outcome of this test for `Nc1ccc(-n2nncc2-c2ccco2)cc1` ?
inactive

Record lookup: outcome of this test for `CCN(CC)CCCNC(=O)c1cc(-c2cccc(Cl)c2)on1` ?
active

Record lookup: outcome of this test for `CC1=NCCN1S(=O)(=O)c1ccc(Br)c(C)c1` ?
inactive

Record lookup: outcome of this test for Cc1ccnc(N2C(=O)c3ccccc3C2Nc2ccc3c(c2)OCCO3)c1 (configuration not stated) ?
inactive

Record lookup: outcome of this test for `COc1nc(Oc2ccc(=O)n(C)n2)nc(N(C)C)n1` ?
inactive

Record lookup: outcome of this test for `Cc1cc(C(=O)NCCCc2ccccc2)no1` ?
inactive

Record lookup: outcome of this test for `CCCN1Cc2cccc(C(=O)NCc3ccccc3)c2C1=O` ?
inactive
